Biological target: Poly [ADP-ribose] polymerase 1 (Homo sapiens)
Sequence (P09874 whole entry): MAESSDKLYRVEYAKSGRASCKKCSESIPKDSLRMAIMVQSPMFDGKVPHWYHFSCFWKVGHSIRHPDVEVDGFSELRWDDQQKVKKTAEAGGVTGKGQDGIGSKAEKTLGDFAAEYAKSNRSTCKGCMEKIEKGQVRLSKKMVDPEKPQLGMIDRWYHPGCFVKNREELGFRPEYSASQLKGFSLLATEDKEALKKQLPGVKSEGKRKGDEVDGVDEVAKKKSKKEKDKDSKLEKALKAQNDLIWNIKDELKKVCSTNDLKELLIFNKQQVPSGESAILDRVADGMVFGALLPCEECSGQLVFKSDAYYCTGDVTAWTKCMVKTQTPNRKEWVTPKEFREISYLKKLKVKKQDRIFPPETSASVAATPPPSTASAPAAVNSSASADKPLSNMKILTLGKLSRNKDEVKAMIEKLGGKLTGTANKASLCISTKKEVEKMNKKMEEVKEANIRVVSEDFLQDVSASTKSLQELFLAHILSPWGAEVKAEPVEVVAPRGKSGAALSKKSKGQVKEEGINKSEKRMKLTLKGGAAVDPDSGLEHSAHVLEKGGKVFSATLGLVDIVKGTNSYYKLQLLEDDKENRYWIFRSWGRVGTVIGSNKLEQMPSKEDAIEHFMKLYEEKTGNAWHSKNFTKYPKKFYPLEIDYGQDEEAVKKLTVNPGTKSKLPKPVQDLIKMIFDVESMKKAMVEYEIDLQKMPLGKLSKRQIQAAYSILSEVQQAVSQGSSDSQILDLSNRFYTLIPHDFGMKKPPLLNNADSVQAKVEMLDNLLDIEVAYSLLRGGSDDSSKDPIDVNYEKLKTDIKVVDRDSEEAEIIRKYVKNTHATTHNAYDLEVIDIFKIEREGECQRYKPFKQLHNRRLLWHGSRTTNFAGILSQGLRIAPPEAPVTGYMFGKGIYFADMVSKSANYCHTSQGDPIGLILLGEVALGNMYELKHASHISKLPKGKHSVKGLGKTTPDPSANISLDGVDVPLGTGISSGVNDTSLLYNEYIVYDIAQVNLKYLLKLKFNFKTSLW
outcomeMeasure: IC50 (nM)
Please respond with the number in nM and leave the unit unwritten.

I'm curious: which IC50 was measured for "C[N+]1(CCCNS(=O)(=O)c2ccc3c(c2)Cc2c-3[nH]c(=O)c3ccccc23)CCOCC1" tested on Poly [ADP-ribose] polymerase 1 (Homo sapiens)?
800

Data credit: BindingDB's records for doi:10.1021/jm0502891
